- EXPERIMENTAL SYSTEM: zfERβ1 (Danio rerio, UniProt Q5PR29)
- TEST SUMMARY: cell-based
- CONDITION CONTEXT: zfERβ1 EC50, HELN-zfERβ1, 28 °C
TEST READOUT: EC50

// lookup EC50 | system=zfERβ1 (Danio rerio, UniProt Q5PR29) | key= O=C(c1ccc(O)cc1O)c1ccc(O)cc1O [BP2, 2,2′,4,4′-tetrahydroxybenzophenone] ~803 nM

* * *

- EXPERIMENTAL SYSTEM: zfERβ2 (Danio rerio)
- TEST SUMMARY: cell-based
- CONDITION CONTEXT: zfERβ2 EC50, HELN-zfERβ2, 28 °C
TEST READOUT: pEC50
Give bare numbers, as −log10 of the molar value.

Can you share its pEC50? I mean this compound: C[C@]12CC[C@@H]3c4ccc(O)cc4CC[C@H]3[C@@H]1CCC2=O [E1, 1,3,5[10]-estratriene-3-ol-17-one] 7.92

* * *

- EXPERIMENTAL SYSTEM: zfERβ1 (Danio rerio)
- CONDITION CONTEXT: read-out: zfERβ1 EC50; HELN-zfERβ1, 28 °C
TEST READOUT: EC50 (pM)
Give bare numbers, in pM.

Can you share its EC50? I mean this compound: C[C@H]1CCC[C@H](O)CCCCCc2cc(O)cc(O)c2C(=O)O1 [α-Zearalanol, α-zearalanol] 710

* * *

- EXPERIMENTAL SYSTEM: UniProtKB P57717
- TEST SUMMARY: HELN-zfERα luciferase transactivation assay
- CONDITION CONTEXT: read-out: zfERα EC50; HELN-zfERα, 37 °C
TEST READOUT: pEC50
Answers are plain numbers, as −log10 of the molar value.

Can you share its pEC50? I mean this compound: C#C[C@]1(O)CC[C@H]2[C@@H]3CCc4cc(O)ccc4[C@H]3CC[C@@]21C 9.02

* * *

- EXPERIMENTAL SYSTEM: zfERβ1 (Danio rerio)
- CONDITION CONTEXT: HELN-zfERβ1
TEST READOUT: agonistic activity on zfERβ1 (in words)

INSERT INTO assay_data (compound, recorded_result) VALUES
  ('CCC(=C(c1ccc(O)cc1)c1ccc(OCCN(C)C)cc1)c1ccccc1', 'No agonistic activity'),
  ('C[C@]12CC[C@@H]3c4ccc(O)cc4C[C@@H](CCCCCCCCC[S+]([O-])CCCC(F)(F)C(F)(F)F)[C@H]3[C@@H]1CC[C@@H]2O (stereo partly drawn)', 'No agonistic activity');

* * *

- EXPERIMENTAL SYSTEM: zfERα (Danio rerio, UniProt P57717)
- Sequence (P57717 1-569): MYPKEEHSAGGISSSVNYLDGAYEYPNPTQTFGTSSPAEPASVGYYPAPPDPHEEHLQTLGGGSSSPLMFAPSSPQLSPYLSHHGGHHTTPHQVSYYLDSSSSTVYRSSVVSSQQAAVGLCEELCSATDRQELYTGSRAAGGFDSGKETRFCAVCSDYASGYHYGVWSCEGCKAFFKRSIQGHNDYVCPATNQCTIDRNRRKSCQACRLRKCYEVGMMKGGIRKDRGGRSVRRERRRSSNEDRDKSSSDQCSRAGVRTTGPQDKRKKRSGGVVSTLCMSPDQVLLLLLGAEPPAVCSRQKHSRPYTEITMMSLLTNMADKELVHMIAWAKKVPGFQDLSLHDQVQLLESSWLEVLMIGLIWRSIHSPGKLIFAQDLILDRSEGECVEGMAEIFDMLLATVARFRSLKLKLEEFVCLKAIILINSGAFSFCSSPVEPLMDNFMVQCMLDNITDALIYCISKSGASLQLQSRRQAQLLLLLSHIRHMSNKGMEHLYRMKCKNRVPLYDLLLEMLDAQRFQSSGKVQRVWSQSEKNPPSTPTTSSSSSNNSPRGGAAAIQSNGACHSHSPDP
- TEST SUMMARY: HELN-zfERα luciferase transactivation assay
- CONDITION CONTEXT: read-out: zfERα EC50; HELN-zfERα, 31 °C
TEST READOUT: pEC50
Numbers only, as −log10 of the molar value.

Can you share its pEC50? I mean this molecule: C#C[C@]1(O)CC[C@H]2[C@@H]3CCc4cc(O)ccc4[C@H]3CC[C@@]21C 9.90

* * *

- EXPERIMENTAL SYSTEM: zfERα (Danio rerio, UniProt P57717)
- TEST SUMMARY: HELN-zfERα luciferase transactivation assay
- CONDITION CONTEXT: read-out: zfERα EC50; HELN-zfERα, 34 °C
TEST READOUT: EC50

Can you share its EC50? I mean this compound: C#C[C@]1(O)CC[C@H]2[C@@H]3CCc4cc(O)ccc4[C@H]3CC[C@@]21C [EE2] 0.19 nM

* * *

- EXPERIMENTAL SYSTEM: zfERα (Danio rerio)
- Sequence (P57717 1-569): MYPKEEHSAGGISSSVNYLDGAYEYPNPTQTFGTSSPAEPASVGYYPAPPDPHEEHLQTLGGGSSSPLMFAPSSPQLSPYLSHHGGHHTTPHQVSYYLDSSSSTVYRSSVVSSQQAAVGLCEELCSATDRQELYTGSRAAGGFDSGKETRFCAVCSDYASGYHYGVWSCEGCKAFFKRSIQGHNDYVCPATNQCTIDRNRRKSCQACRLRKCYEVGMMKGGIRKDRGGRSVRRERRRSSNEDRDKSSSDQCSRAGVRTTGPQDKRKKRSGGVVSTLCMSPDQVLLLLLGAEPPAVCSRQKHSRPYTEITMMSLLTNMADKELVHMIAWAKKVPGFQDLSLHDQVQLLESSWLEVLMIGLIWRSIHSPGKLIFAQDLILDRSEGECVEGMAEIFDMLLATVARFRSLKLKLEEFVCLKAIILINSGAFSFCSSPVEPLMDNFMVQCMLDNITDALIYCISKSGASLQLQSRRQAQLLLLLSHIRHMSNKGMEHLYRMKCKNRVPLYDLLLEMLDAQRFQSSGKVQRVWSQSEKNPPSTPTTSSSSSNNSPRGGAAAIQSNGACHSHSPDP
- TEST SUMMARY: HELN-zfERα luciferase transactivation assay
- CONDITION CONTEXT: zfERα EC50, HELN-zfERα, 28 °C
pEC50: −log10 of the molar value.
TEST READOUT: pEC50

// lookup pEC50 | system=zfERα (Danio rerio) | key= O=C(c1ccc(O)cc1O)c1ccc(O)cc1O [BP2, 2,2′,4,4′-tetrahydroxybenzophenone] ~6.60

* * *

- EXPERIMENTAL SYSTEM: zfERβ2 (Danio rerio, UniProt Q7ZU32)
- CONDITION CONTEXT: read-out: zfERβ2 EC50; HELN-zfERβ2, 28 °C
pEC50: −log10 of the molar value.
TEST READOUT: pEC50

Can you share its pEC50? I mean this compound: C#C[C@]1(O)CC[C@H]2[C@@H]3CCc4cc(O)ccc4[C@H]3CC[C@@]21C ~10.51

* * *

- EXPERIMENTAL SYSTEM: zfERβ1 (Danio rerio, UniProt Q5PR29)
- TEST SUMMARY: cell-based
- CONDITION CONTEXT: zfERβ1 EC50, HELN-zfERβ1, 28 °C; text value in μM
TEST READOUT: EC50 (µM)
Give bare numbers, in µM.

Can you share its EC50? I mean this compound: CC(C)(c1ccc(O)cc1)c1ccc(O)cc1 [BPA, bisphenol A] 1.89
